The measurements presented in this section are drawn from PubChem BioAssay (Tox21).

- test-description: qHTS assay for identifying genotoxic compounds that show differential cytotoxicity against isogenic chicken DT40 cell lines with known DNA damage response pathways - Rev3 mutant cell line (AID 743014); note: nearly all actives have a fitted effect of over 55% in size; note: potency is the fitted concentration of half-maximal effect
- protocol-conditions: chicken DT40 Rev3-/- viability, CellTiter-Glo, 40 h; series mostly up to 68.4 µM
Results filed as inconclusive are left out. Active and inactive are the calls of the source. Calls come from the whole dose curve; as a rule, active = well fitted cell-killing curve with a large enough effect in the repeat runs; inconclusive = weak or mixed curves, or effect the other way; inactive = no such curve, though single readings can be large or run the other way.

# molecule, Potency
rows = [
    ("CO[C@H]1C[C@H](O[C@@H]2/C(C)=C/C[C@@H]3C[C@@H](C[C@]4(CC[C@H](C)[C@@H](C5CCCCC5)O4)O3)OC(=O)[C@@H]3C=C(C)/C(=N/O)[C@H]4OC/C(=C\\C=C\\[C@@H]2C)[C@]43O)O[C@@H](C)[C@@H]1O", "inactive"),
    ("CN[C@@H]1[C@@H](O)[C@@H](O[C@@H]2[C@@H](O)[C@H](O[C@H]3O[C@H](CN)[C@@H](O)[C@H](O)[C@H]3O)[C@@H](N)C[C@H]2NC(=O)C(O)CN)OC[C@]1(C)O (some centres undefined)", "inactive"),
    ("O=c1oc2cc(O)ccc2s1", "inactive"),
    ("O=[n+]1ccn([O-])c2ccccc21", "inactive"),
    ("CCN(CC)CCOCCOC(=O)C(CC)(CC)c1ccccc1", "1.88 µM (active)"),
    ("O=C(O)CCC/C=C\\C[C@@H]1[C@@H](/C=C/[C@@H](O)COc2cccc(Cl)c2)[C@H](O)C[C@@H]1O", "inactive"),
    ("Cn1nnnc1SCC1=C(C(=O)O)N2C(=O)[C@@H](NC(=O)[C@H](OC=O)c3ccccc3)[C@H]2SC1", "inactive"),
    ("C[C@@](Cc1ccc(O)c(O)c1)(NN)C(=O)O", "29.8 µM (active)"),
    ("O=C1NC(=O)[C@H]2[C@@H]1[C@@H]1C=C[C@H]2C1", "inactive"),
    ("COc1cc([C@@H]2c3cc4c(cc3C(O[C@@H]3O[C@@H]5COC(c6cccs6)O[C@H]5[C@H](O)[C@H]3O)C3COC(=O)[C@@H]32)OCO4)cc(OC)c1O (some centres undefined)", "0.0119 µM (active)"),
    ("CC(C)N=c1cc2n(-c3ccc(Cl)cc3)c3ccccc3nc-2cc1Nc1ccc(Cl)cc1", "11.4 µM (active)"),
    ("C=C(NC(=O)C(=C)NC(=O)c1csc(C2=N[C@@H]3c4csc(n4)[C@H]4NC(=O)c5csc(n5)[C@H]([C@](C)(O)[C@@H](C)O)NC(=O)[C@H]5CSC(=N5)C(=CC)NC(=O)C([C@@H](C)O)NC(=O)c5csc(n5)[C@]3(CC2)NC(=O)[C@H](C)NC(=O)C(=C)NC(=O)[C@H](C)NC(=O)C([C@@H](C)CC)NC2C=Cc3c([C@H](C)O)cc(nc3C2O)C(=O)O[C@@H]4C)n1)C(N)=O (some centres undefined)", "3.2 µM (active)"),
    ("CN1c2c(nc(N)[nH]c2=O)NCC1CNc1ccc(C(=O)NC(CCC(=O)O)C(=O)O)cc1 (centres undefined)", "inactive"),
    ("NCCCC[C@H](NC(=O)[C@@H]1CCCN1C(=O)[C@@H]1CSSC[C@H](N)C(=O)N[C@@H](Cc2ccccc2)C(=O)N[C@@H](Cc2ccccc2)C(=O)N[C@@H](CCC(N)=O)C(=O)N[C@@H](CC(N)=O)C(=O)N1)C(=O)NCC(N)=O", "inactive"),
]
